Target desc: T1, human amylin-3 (a) receptor (human, UniProt P30988 25-474; O60896 24-148)
T1 sequence (looked up) 1: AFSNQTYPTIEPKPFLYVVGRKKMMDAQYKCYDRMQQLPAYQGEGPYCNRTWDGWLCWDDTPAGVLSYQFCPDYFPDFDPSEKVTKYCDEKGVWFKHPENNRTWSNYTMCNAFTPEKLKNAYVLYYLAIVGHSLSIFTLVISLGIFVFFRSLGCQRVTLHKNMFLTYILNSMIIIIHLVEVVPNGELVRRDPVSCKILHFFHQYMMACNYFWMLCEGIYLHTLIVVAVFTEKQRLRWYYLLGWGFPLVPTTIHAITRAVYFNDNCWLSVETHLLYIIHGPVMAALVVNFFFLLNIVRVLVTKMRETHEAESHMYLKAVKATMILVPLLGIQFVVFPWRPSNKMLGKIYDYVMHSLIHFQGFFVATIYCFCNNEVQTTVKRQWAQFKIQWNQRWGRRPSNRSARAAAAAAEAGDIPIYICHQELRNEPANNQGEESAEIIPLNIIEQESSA
T1 sequence (looked up) 2: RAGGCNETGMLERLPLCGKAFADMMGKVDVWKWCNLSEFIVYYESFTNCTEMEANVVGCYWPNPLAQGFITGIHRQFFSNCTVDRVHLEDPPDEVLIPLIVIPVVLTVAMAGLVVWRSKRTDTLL
Assay details: cell-based or functional assay
Starred links: 1 amine or outer side, 2 acyl side, 3 side chain; linkers in the order of their positions; H or OH if unused. Non-standard residues stand in square brackets, D forms with d. Groups on a side chain read outwards from the residue. *: point of attachment. C20 diacid = O=C(O)CCCCCCCCCCCCCCCCCCC(=O)*; C18 diacid = O=C(O)CCCCCCCCCCCCCCCCC(=O)*; C16 diacid = O=C(O)CCCCCCCCCCCCCCC(=O)*; γGlu = O=C(O)[C@H](CCC(=O)[*:2])N[*:1]; εLys = N[C@@H](CCCCN[*:1])C(=O)[*:2]; Trx = NC[C@H]1CC[C@H](C(=O)O)CC1; AEEA = NCCOCCOCC(=O)O; Aib = CC(C)(N)C(=O)O
// reported Human AmyR3 potency [EC50 (pM)] for each item listed
Readout name: Human AmyR3 potency [EC50 (pM)]

1. Comparator compound 0016 (ends and bridges not checked) peptide: H[Aib]EGTFTSDVSSYLEGQAAK([AEEA-AEEA-γGlu-C18 diacid])EFIAWLVRGRGGQEPGQEPK([AEEA-AEEA-γGlu-C18 diacid])CNTATCATQRLAEFLRHSSNNFGPILPPTNVGSNTP-NH2 = 1550
2. Comparator compound 0164 (peptide) peptide: H[Aib]EGTFTSDVSSYLEGQAAKEIFAWLVRGRK([εLys-AEEA-AEEA-γGlu-C18 diacid])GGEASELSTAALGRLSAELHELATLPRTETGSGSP-NH2 = 29.6
3. Comparator compound 0668 (ends and bridges not checked) peptide: H[Aib]EGTFTSDVSSYLEGQAAK([AEEA-AEEA-γGlu-C18 diacid])EFIAWLVRGRGGQEPGQEPK([γGlu-γGlu-C16 diacid])CNTATCATQRLADFLRHSSPNFGAIPSSTNVGSRTY-NH2 = 10000
4. Comparator compound 0192 (peptide) peptide: H[Aib]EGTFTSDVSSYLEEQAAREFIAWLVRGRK([AEEA-AEEA-γGlu-Trx-C20 diacid])GGGGEASELSTAALGRPSAELHELATLPRTETGSGSP-NH2 = 10000
